Values from patent US12448383B2

Test: Stability in pH2 buffered solution
Assay type: physicochemical
Settings: pH2 phosphate buffer, 40° C., 3 hr
Measured attribute: Stability at pH2, 3 hr (% AN)
State just the number; it will be interpreted in % AN.

Would you please look over these solved cases?
Need Stability at pH2, 3 hr of CCOC(=O)OC[C@H]1O[C@@](C#N)(c2ccc3c(N)ncnn23)[C@H](OC(C)=O)[C@@H]1OC(C)=O , thanks.
98.4

Could you tell me which Stability at pH2, 3 hr is on file for CC(C)OC(=O)OC[C@H]1O[C@@](C#N)(c2ccc3c(N)ncnn23)[C@H](OC(=O)C(C)C)[C@@H]1OC(=O)C(C)C ?
100.0

Stability at pH2, 3 hr lookup needed for COC(=O)OC[C@H]1O[C@@](C#N)(c2ccc3c(N)ncnn23)[C@H](OC(C)=O)[C@@H]1OC(C)=O , thanks.
98.3

Next item in the queue.
Which measured Stability at pH2, 3 hr value corresponds to CC(C)OC(=O)OC[C@H]1O[C@@](C#N)(c2ccc3c(N)ncnn23)[C@H](O)[C@@H]1O ?
98.3
